molecular target: Torsin-1A (Homo sapiens) (UniProt O14656); experiment: small-molecule binders of mutant TOR1A in lysate, primary screen, cell lysate, small-molecule microarray, COS7 lysate, 635/667 nm fluorescence (AID 1150); details: COS7 hTOR1A mutant lysate, 635 nm fluorescence, higher = more signal;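 also: score pools 667 nm emission and signal to noise measuring lysate protein binding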
Sequence (O14656 whole entry, looked up): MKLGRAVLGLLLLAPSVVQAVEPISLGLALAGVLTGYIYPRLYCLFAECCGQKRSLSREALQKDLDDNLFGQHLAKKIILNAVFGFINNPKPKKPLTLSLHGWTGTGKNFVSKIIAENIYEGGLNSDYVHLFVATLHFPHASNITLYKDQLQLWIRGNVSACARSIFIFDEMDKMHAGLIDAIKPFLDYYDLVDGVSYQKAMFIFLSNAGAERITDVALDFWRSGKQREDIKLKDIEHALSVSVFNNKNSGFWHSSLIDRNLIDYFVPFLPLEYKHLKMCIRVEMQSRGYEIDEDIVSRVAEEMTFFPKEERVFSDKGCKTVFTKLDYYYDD
measured.endpoint: composite z-score
API note: the answer field is a bare number with no unit suffix.

Here's what some known entries look like.
compound | composite z-score
C=C(C)C1CN([C@H](CO)c2ccccc2)C(=O)/C1=C\c1ccccc1 (stereo partly drawn) | 0.343
CN1C(=O)C2C=CC(C(O)c3ccc(I)cc3)N(N(c3ccccc3)c3ccccc3)C2C1=O (stereo not drawn) | -0.545

Query: Request: composite z-score, test system Torsin-1A (Homo sapiens) (UniProt O14656), entry `COc1ccc([Si](C)(C)[C@@H]2[C@@H](CC(=O)N(CCO)Cc3ccccc3)O[C@]3(C(=O)N(Cc4cccc(I)c4)c4ccccc43)[C@H]2C)cc1`
Response: 0.443

====

test: adipocyte viability effects, profiling panel, cell-based, 3T3-L1 adipocytes, calcein-AM fluorescence, 48 h, basal (AID 1163); details: 3T3-L1 adipocytes viability, higher = more signal; also: test concentration not given here
Catalogue of z-score readings, one per entry.
Reply: number alone, nothing else.

Study these solved cases before continuing.
compound | z-score
C=CCOC(=O)[C@H]1[C@@H]2C(=O)O[C@@H](c3ccccc3)[C@@H](c3ccccc3)N2[C@@H](c2ccc(OCCOC(=O)[C@@H]3C[C@@H]4C(=O)N[C@@H](Cc5ccccc5)C(=O)N4[C@@H]3c3ccc(O)cc3)cc2)[C@]12C(=O)Nc1ccc(I)cc12 | -0.28
COCCOC(=O)N1C(=O)[C@@]2(c3ccccc31)[C@H](C(=O)Nc1nc3ccccc3s1)[C@H]1C(=O)O[C@H](c3ccccc3)[C@H](c3ccccc3)N1[C@@H]2c1ccccc1OCCO | 0.679
Cc1ccc(S(=O)(=O)N2[C@@H](c3ccccc3)C(C(=O)O)=CC[C@H]2c2ccc(F)cc2)cc1 | 0.31
CCOC(=O)C=C1C[C@@H](c2cccc([N+](=O)[O-])c2)O[C@@H](c2cccc([N+](=O)[O-])c2)O1 | -0.477
CC(C)c1ccc(NN2C(C(O)c3ccccc3)C=CC3C(=O)N(c4ccccc4)C(=O)C32)cc1 (stereo not drawn) | -1.6
COC(=O)C(CC#Cc1ccc2c(c1)[C@]1(C(=O)N2)[C@H](c2ccccc2OCCO)N2[C@H](c3ccccc3)[C@H](c3ccccc3)OC(=O)[C@H]2[C@@H]1C(=O)N1CCN(c2ncccn2)CC1)C(=O)OC | -1.46
O=C1N(Cc2ccccc2)Cc2ccccc2C[C@@]12COC(c1ccc(OCCCO)cc1)=N2 | 1.06

Kindly consider the entry below.
Query: // lookup z-score for `C=C(CC1([C@@H](NP(=O)(c2ccccc2)c2ccccc2)[C@H]2C[C@@H]2CCCC)CC1)c1cccc(OC)c1`
Response: -0.803

====

assay: small-molecule binders of probe aInhba, primary screen, biochemical, small-molecule microarray, 635/667 nm fluorescence (AID 1148); details: higher = more signal;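 also: score merges 667nm spot fluorescence with signal-to-noise for antibody binding to printed compounds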
Entries are sorted into classes by composite z-score as follows: bottom end = under -0.08, midrange = from -0.08 up to 0.04, top end = 0.04 and over

Would you please look over these solved cases?
compound | group.label
COc1ccc(CCNC(=O)[C@@]2(c3ccc([N+](=O)[O-])cc3)CC(=O)N(C3CCCCC3)[C@@H]2c2ccc(CO)cc2I)cc1 | midrange
CC(C)C[C@H]1NC(=O)CNC(=O)[C@@]23C(=O)N[C@@H](Cc4ccccc4)C2[C@H](C)[C@@]2(C)O[C@H]2C3/C=C/C/C=C\CNC1=O (some centres undefined) | midrange
C=C(COC)C(=O)CC[C@@H](OC(=O)c1ccccc1-c1ccccc1C(=O)O)c1ccccc1OCCO | midrange
C=C(C(=O)CC[C@@H](OC(=O)c1ccccc1-c1ccccc1C(=O)O)c1ccc(CO)o1)C(C)C | midrange
[N-]=[N+]=NCc1ccccc1[C@H]1OC(c2ccc(OCCCO)cc2)=N[C@@]1(Cc1ccccc1N=[N+]=[N-])C(=O)N1CCOCC1 | top end
COCCOC(=O)N1C(=O)[C@@]2(c3ccccc31)[C@H](C(=O)Nc1nc3ccccc3s1)[C@H]1C(=O)O[C@H](c3ccccc3)[C@H](c3ccccc3)N1[C@@H]2c1ccccc1OCCO | top end
CCCNC(=O)[C@@]1(Sc2ccc(C)cc2)CC(=O)N(Cc2cc(C(F)(F)F)cc(C(F)(F)F)c2)[C@@H]1c1ccc(CO)cc1 | bottom end

Consider now this further compound.
Query: Category of `COCCCNC(=O)[C@@]1(Cc2ccccc2I)c2ccccc2C(=O)N(Cc2ccccc2OC)[C@H]1c1ccc(CO)cc1` :
Response: bottom end
